The following compounds are listed with their measured tissue uptake at 1 h values.
Assay: Biodistribution of radiometal-DOTA-BBN conjugates in CF1 normal mice
Settings: CF-1, mouse, in vivo, iv, total radioactivity, Avg % ID/gm, Pancreas, 1 hour post-injection
Please state the number and follow it with the unit.

CSCC[C@H](NC(=O)[C@H](CC(C)C)NC(=O)[C@H](Cc1cnc[nH]1)NC(=O)CNC(=O)[C@@H](NC(=O)[C@H](C)NC(=O)[C@H](Cc1c[nH]c2ccccc12)NC(=O)[C@H](CCC(N)=O)NC(=O)CN1CCN(CC(=O)O)CCN(CC(=O)O)CCN(CC(=O)O)CC1)C(C)C)C(N)=O [111In-DOTA-0-BBN[7-14]NH2, metal not drawn]: 0.2 %ID/g
CSCC[C@H](NC(=O)[C@H](CC(C)C)NC(=O)[C@H](Cc1c[nH]cn1)NC(=O)CNC(=O)[C@@H](NC(=O)[C@H](C)NC(=O)[C@H](Cc1c[nH]c2ccccc12)NC(=O)[C@H](CCC(N)=O)NC(=O)CCCCNC(=O)CN1CCN(CC(=O)O)CCN(CC(=O)O)CCN(CC(=O)O)CC1)C(C)C)C(N)=O [111In-DOTA-5-Ava-BBN[7-14]NH2, metal not drawn]: 15.8 %ID/g
CSCC[C@H](NC(=O)[C@H](CC(C)C)NC(=O)[C@H](Cc1cnc[nH]1)NC(=O)CNC(=O)[C@@H](NC(=O)[C@H](C)NC(=O)[C@H](Cc1c[nH]c2ccccc12)NC(=O)[C@H](CCC(N)=O)NC(=O)CCCCCCCNC(=O)CN1CCN(CC(=O)O)CCN(CC(=O)O)CCN(CC(=O)O)CC1)C(C)C)C(N)=O [111In-DOTA-8-Aoc-BBN[7-14]NH2, metal not drawn]: 27 %ID/g

Consider the additional compound presented here.
For record CSCC[C@H](NC(=O)[C@H](CC(C)C)NC(=O)[C@H](Cc1c[nH]cn1)NC(=O)CNC(=O)[C@@H](NC(=O)[C@H](C)NC(=O)[C@H](Cc1c[nH]c2ccccc12)NC(=O)[C@H](CCC(N)=O)NC(=O)CCCCCCCCCCNC(=O)CN1CCN(CC(=O)O)CCN(CC(=O)O)CCN(CC(=O)O)CC1)C(C)C)C(N)=O [111In-DOTA-11-Aun-BBN[7-14]NH2, metal not drawn] the listed tissue uptake at 1 h is 26 %ID/g

---

Assay: Biodistribution of radiometal-DOTA-BBN conjugates in CF1 normal mice
Conditions: 1 hour post-injection
readout.kind: Avg % ID, Blood (% ID)
Write down the numeric answer in % ID and omit the unit.

Study these solved cases before continuing.
CSCC[C@H](NC(=O)[C@H](CC(C)C)NC(=O)[C@H](Cc1cnc[nH]1)NC(=O)CNC(=O)[C@@H](NC(=O)[C@H](C)NC(=O)[C@H](Cc1c[nH]c2ccccc12)NC(=O)[C@H](CCC(N)=O)NC(=O)CCNC(=O)CN1CCN(CC(=O)O)CCN(CC(=O)O)CCN(CC(=O)O)CC1)C(C)C)C(N)=O [149Pm-DOTA-β-Ala-BBN[7-14]NH2]: 0.30
CSCC[C@H](NC(=O)[C@H](CC(C)C)NC(=O)[C@H](Cc1cnc[nH]1)NC(=O)CNC(=O)[C@@H](NC(=O)[C@H](C)NC(=O)[C@H](Cc1c[nH]c2ccccc12)NC(=O)[C@H](CCC(N)=O)NC(=O)CCCCCCCNC(=O)CN1CCN(CC(=O)O)CCN(CC(=O)O)CCN(CC(=O)O)CC1)C(C)C)C(N)=O [111In-DOTA-8-Aoc-BBN[7-14]NH2] [metal not drawn]: 0.66
CSCC[C@H](NC(=O)[C@H](CC(C)C)NC(=O)[C@H](Cc1cnc[nH]1)NC(=O)CNC(=O)[C@@H](NC(=O)[C@H](C)NC(=O)[C@H](Cc1c[nH]c2ccccc12)NC(=O)[C@H](CCC(N)=O)NC(=O)CN1CCN(CC(=O)O)CCN(CC(=O)O)CCN(CC(=O)O)CC1)C(C)C)C(N)=O [177Lu-DOTA-0-BBN[7-14]NH2] [metal not drawn]: 0.39
CSCC[C@H](NC(=O)[C@H](CC(C)C)NC(=O)[C@H](Cc1cnc[nH]1)NC(=O)CNC(=O)[C@@H](NC(=O)[C@H](C)NC(=O)[C@H](Cc1c[nH]c2ccccc12)NC(=O)[C@H](CCC(N)=O)NC(=O)CCCCCCCNC(=O)CN1CCN(CC(=O)O)CCN(CC(=O)O)CCN(CC(=O)O)CC1)C(C)C)C(N)=O [149Pm-DOTA-8-Aoc-BBN[7-14]NH2]: 0.23
CSCC[C@H](NC(=O)[C@H](CC(C)C)NC(=O)[C@H](Cc1cnc[nH]1)NC(=O)CNC(=O)[C@@H](NC(=O)[C@H](C)NC(=O)[C@H](Cc1c[nH]c2ccccc12)NC(=O)[C@H](CCC(N)=O)NC(=O)CN1CCN(CC(=O)O)CCN(CC(=O)O)CCN(CC(=O)O)CC1)C(C)C)C(N)=O [149Pm-DOTA-0-BBN[7-14]NH2]: 0.00
CSCC[C@H](NC(=O)[C@H](CC(C)C)NC(=O)[C@H](Cc1cnc[nH]1)NC(=O)CNC(=O)[C@@H](NC(=O)[C@H](C)NC(=O)[C@H](Cc1c[nH]c2ccccc12)NC(=O)[C@H](CCC(N)=O)NC(=O)CCCCCCCNC(=O)CN1CCN(CC(=O)O)CCN(CC(=O)O)CCN(CC(=O)O)CC1)C(C)C)C(N)=O [177Lu-DOTA-8-Aoc-BBN[7-14]NH2] [metal not drawn]: 0.20

Read the next record carefully.
Recorded Avg % ID, Blood (molecule CSCC[C@H](NC(=O)[C@H](CC(C)C)NC(=O)[C@H](Cc1c[nH]cn1)NC(=O)CNC(=O)[C@@H](NC(=O)[C@H](C)NC(=O)[C@H](Cc1c[nH]c2ccccc12)NC(=O)[C@H](CCC(N)=O)NC(=O)CCCCNC(=O)CN1CCN(CC(=O)O)CCN(CC(=O)O)CCN(CC(=O)O)CC1)C(C)C)C(N)=O [177Lu-DOTA-5-Ava-BBN[7-14]NH2] [metal not drawn] ): 0.35

---

Experiment: Biodistribution of radiometal-DOTA-BBN conjugates in CF1 normal mice
Settings: 1 hour post-injection
compounds and their reported Avg % ID/gm, Muscle
Entry rule: numbers only, all in % ID/gm.

# count of solved cases: 5
CSCC[C@H](NC(=O)[C@H](CC(C)C)NC(=O)[C@H](Cc1c[nH]cn1)NC(=O)CNC(=O)[C@@H](NC(=O)[C@H](C)NC(=O)[C@H](Cc1c[nH]c2ccccc12)NC(=O)[C@H](CCC(N)=O)NC(=O)CCCCCCCCCCNC(=O)CN1CCN(CC(=O)O)CCN(CC(=O)O)CCN(CC(=O)O)CC1)C(C)C)C(N)=O [177Lu-DOTA-11-Aun-BBN[7-14]NH2] [metal not drawn]: 0.75
CSCC[C@H](NC(=O)[C@H](CC(C)C)NC(=O)[C@H](Cc1cnc[nH]1)NC(=O)CNC(=O)[C@@H](NC(=O)[C@H](C)NC(=O)[C@H](Cc1c[nH]c2ccccc12)NC(=O)[C@H](CCC(N)=O)NC(=O)CN1CCN(CC(=O)O)CCN(CC(=O)O)CCN(CC(=O)O)CC1)C(C)C)C(N)=O [111In-DOTA-0-BBN[7-14]NH2] [metal not drawn]: 0.03
CSCC[C@H](NC(=O)[C@H](CC(C)C)NC(=O)[C@H](Cc1cnc[nH]1)NC(=O)CNC(=O)[C@@H](NC(=O)[C@H](C)NC(=O)[C@H](Cc1c[nH]c2ccccc12)NC(=O)[C@H](CCC(N)=O)NC(=O)CCCCCCCNC(=O)CN1CCN(CC(=O)O)CCN(CC(=O)O)CCN(CC(=O)O)CC1)C(C)C)C(N)=O [149Pm-DOTA-8-Aoc-BBN[7-14]NH2]: 0.09
CSCC[C@H](NC(=O)[C@H](CC(C)C)NC(=O)[C@H](Cc1cnc[nH]1)NC(=O)CNC(=O)[C@@H](NC(=O)[C@H](C)NC(=O)[C@H](Cc1c[nH]c2ccccc12)NC(=O)[C@H](CCC(N)=O)NC(=O)CCNC(=O)CN1CCN(CC(=O)O)CCN(CC(=O)O)CCN(CC(=O)O)CC1)C(C)C)C(N)=O [149Pm-DOTA-β-Ala-BBN[7-14]NH2]: 0.04
CSCC[C@H](NC(=O)[C@H](CC(C)C)NC(=O)[C@H](Cc1c[nH]cn1)NC(=O)CNC(=O)[C@@H](NC(=O)[C@H](C)NC(=O)[C@H](Cc1c[nH]c2ccccc12)NC(=O)[C@H](CCC(N)=O)NC(=O)CCCCNC(=O)CN1CCN(CC(=O)O)CCN(CC(=O)O)CCN(CC(=O)O)CC1)C(C)C)C(N)=O [149Pm-DOTA-5-Ava-BBN[7-14]NH2]: 0.24

Memo: CSCC[C@H](NC(=O)[C@H](CC(C)C)NC(=O)[C@H](Cc1cnc[nH]1)NC(=O)CNC(=O)[C@@H](NC(=O)[C@H](C)NC(=O)[C@H](Cc1c[nH]c2ccccc12)NC(=O)[C@H](CCC(N)=O)NC(=O)CCNC(=O)CN1CCN(CC(=O)O)CCN(CC(=O)O)CCN(CC(=O)O)CC1)C(C)C)C(N)=O [177Lu-DOTA-β-Ala-BBN[7-14]NH2] [metal not drawn] , reported Avg % ID/gm, Muscle: 0.94

Quick note, Avg % ID/gm, Muscle for CSCC[C@H](NC(=O)[C@H](CC(C)C)NC(=O)[C@H](Cc1c[nH]cn1)NC(=O)CNC(=O)[C@@H](NC(=O)[C@H](C)NC(=O)[C@H](Cc1c[nH]c2ccccc12)NC(=O)[C@H](CCC(N)=O)NC(=O)CCCCNC(=O)CN1CCN(CC(=O)O)CCN(CC(=O)O)CCN(CC(=O)O)CC1)C(C)C)C(N)=O [177Lu-DOTA-5-Ava-BBN[7-14]NH2] [metal not drawn] landed at 0.67

Notebook: CSCC[C@H](NC(=O)[C@H](CC(C)C)NC(=O)[C@H](Cc1cnc[nH]1)NC(=O)CNC(=O)[C@@H](NC(=O)[C@H](C)NC(=O)[C@H](Cc1c[nH]c2ccccc12)NC(=O)[C@H](CCC(N)=O)NC(=O)CCNC(=O)CN1CCN(CC(=O)O)CCN(CC(=O)O)CCN(CC(=O)O)CC1)C(C)C)C(N)=O [111In-DOTA-β-Ala-BBN[7-14]NH2] [metal not drawn] , Avg % ID/gm, Muscle read as 0.03

FYI, the data here is from patent US20060067886A1.
